Target: cloned human or rodent CNS receptors, channels, and transporters (PDSP panel) (Homo sapiens, UniProt P28223)
Construct: expressed in transfected cells
Sequence (P28223 whole entry): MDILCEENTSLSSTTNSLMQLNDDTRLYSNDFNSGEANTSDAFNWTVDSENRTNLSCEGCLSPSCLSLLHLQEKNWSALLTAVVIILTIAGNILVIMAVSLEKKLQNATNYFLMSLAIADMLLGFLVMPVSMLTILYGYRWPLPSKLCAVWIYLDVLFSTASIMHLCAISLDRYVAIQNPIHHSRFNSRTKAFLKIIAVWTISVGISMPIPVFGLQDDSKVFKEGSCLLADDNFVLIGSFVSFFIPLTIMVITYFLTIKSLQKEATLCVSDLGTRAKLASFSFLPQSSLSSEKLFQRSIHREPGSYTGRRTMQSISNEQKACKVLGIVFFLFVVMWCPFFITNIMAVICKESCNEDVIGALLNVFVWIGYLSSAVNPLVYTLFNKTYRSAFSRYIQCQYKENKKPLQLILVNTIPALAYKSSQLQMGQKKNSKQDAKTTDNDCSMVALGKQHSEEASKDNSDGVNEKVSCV
Assay: PDSP GPCR panel primary binding assays at 10 μM
Details: 5-HT2A; primary assay, mean inhibition
propertyName: Mean % (%)
State just the number; it will be interpreted in %.

compound	displayUnit	Mean %
O=C(NC1CC1)C(=O)C(Cc1ccccc1)NC(=O)[C@H]1CCC(=O)N1Cc1ccccc1 (stereo partly shown) [UNC10302676A, ABT-957 (Alicapistat)]	%	1.79
CC(=O)N1CCC(NC(=O)NC23CC4CC(CC(C4)C2)C3)CC1 [UNC10302683A, AR9281]	%	-3.07
CCC(=O)N1CCC(NC(=O)Nc2ccc(OC(F)(F)F)cc2)CC1 [UNC10302681A, TPPU]	%	-2.37

For the compound CNc1nc(C)nc(N[C@H]2CCC[C@@H](C(=O)NCc3ccc(C#N)cc3C(F)(F)F)C2)n1 [UNC10302679A, GSK2256294A] , report Mean %.
-5.29

###

# key: entry, value: Inhibition 1
Test system: cloned human or rodent CNS receptors, channels, and transporters (PDSP panel)
Test: PDSP GPCR panel primary binding assays at 10 μM
Conditions: DOR; primary assay, replicate 1
State just the number; it will be interpreted in %.

Some entries whose results are on file:
compound	Inhibition 1, %
O=C(NC1CC1)C(=O)C(Cc1ccccc1)NC(=O)[C@H]1CCC(=O)N1Cc1ccccc1 (stereo partly shown) [UNC10302676A, ABT-957 (Alicapistat)]	2.73
CCC(=O)N1CCC(NC(=O)Nc2ccc(OC(F)(F)F)cc2)CC1 [UNC10302681A, TPPU]	6.89
CC(=O)N1CCC(NC(=O)NC23CC4CC(CC(C4)C2)C3)CC1 [UNC10302683A, AR9281]	-16.42

Next item in the queue.
For the compound CNc1nc(C)nc(N[C@H]2CCC[C@@H](C(=O)NCc3ccc(C#N)cc3C(F)(F)F)C2)n1 [UNC10302679A, GSK2256294A] , report Inhibition 1.
14.12

###

Test system: cloned human or rodent CNS receptors, channels, and transporters (PDSP panel)
Test: PDSP GPCR panel primary binding assays at 10 μM
Details: Receptor Alpha2A; primary assay, 10 μM
propertyName: Inhibition 4 (%)
State just the number; it will be interpreted in %.

compound	system	Inhibition 4, %
CCCCNc1ncc2c(-c3ccc(CN4CCN(C)CC4)cc3)cn([C@H]3CC[C@H](O)CC3)c2n1 [UNC2025C, UNC2025]	cloned human or rodent CNS receptors, channels, and transporters (PDSP panel)	38.73
O=c1oc2ccccc2cc1-c1cn2cc(Cc3ccc(F)cc3)sc2n1 [UNC10302680A, iMDK]	cloned human or rodent CNS receptors, channels, and transporters (PDSP panel)	-29.15
Cl.NC(=O)c1cnc(N[C@@H]2CCCC[C@@H]2N)nc1Nc1cccc(-n2nccn2)c1 [UNC10302682A, P505-15 (PRT06207 HCl)]	cloned human or rodent CNS receptors, channels, and transporters (PDSP panel)	16.75

Next item in the queue.
For the compound c1cn2cc(-c3ccc4cn[nH]c4c3)nc(Nc3ccc(N4CCOCC4)cc3)c2n1 [UNC10302678A, Entospletinib (GS-9973)] , report Inhibition 4.
5.61

The measured values listed here are drawn from paper PMC9005681.
